Quick list: binary diffusion coefficient per entry.
protocolNotes: xn = mol fraction of the nth substance listed
conditionNotes: 392 K; 101 kPa; Fluid (supercritical or subcritical phases); Taylor dispersion method; x1 = 0
quantity: binary diffusion coefficient (m2/s)

Oc1cc(O)c2c(c1)O[C@H](c1ccc(O)c(O)c1)[C@@H](O)C2 [(+)-catechin] + O ... 4.78e-10
COc1cc(-c2[o+]c3cc(O)cc(O[C@@H]4O[C@H](CO)[C@@H](O)[C@H](O)[C@H]4O)c3cc2O[C@@H]2O[C@H](CO)[C@@H](O)[C@H](O)[C@H]2O)cc(OC)c1O.[Cl-] [malvidin-3,5-diglucoside chloride] + O ... 5.3e-10
O=C(O)c1ccc(O)c(O)c1 [3,4-dihydroxybenzoic acid] + O ... 5.27e-10
